B1: TMEM106C (parent)
chain: FTGRDSITCLTCQGTGYIPTEQVN

Variants of: B1
Assay: protein stability index of a GFP-peptide fusion (GPS, HEK-293T) (PSI 1-6); higher = more stable;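 note: lentivirally expressed fusions sorted by FACS into six bins by GFP to DsRed ratio, PSI derived from sequencing read proportions per bin multiplied by bin number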
Details: c terminus: a fixed tail appended
experimental_endpoint: protein stability index
When you answer, write just the number.

Sample records with protein stability index:
INSERT INTO results (sequence_variant, reported_measurement) VALUES
  ('Q22N', 2.26),
  ('G14N', 1.74),
  ('Q22W', 1.88),
  ('D5M', 2.73),
  ('T20S', 2.07);

Per the record, `C9K` has protein stability index of 2.17

Please fill in: protein stability index reported for `F1Y` = 1.99
